PROTOCOL DESCRIPTION: Intrinsic clearance in mouse liver microsomes
Format: ADME, microsome
EXPERIMENTAL CONTEXT: read-out: CLH
MEASURED QUANTITY: microsomal CLint (µL/min/mg)
A number alone suffices; assume µL/min/mg.

Could you share which microsomal CLint value was measured for C[C@H](Nc1nccc(N2C(=O)OC[C@@H]2CF)n1)c1cn(-c2ccc(C(F)(F)F)cc2)cn1 ?
11

Would you mind telling me what microsomal CLint value was observed for C[C@H](Nc1ncc(F)c(N2CCOC2=O)n1)c1cn(-c2ccc(Cl)cc2)cn1 ?
73

----------
PROTOCOL DESCRIPTION: Intrinsic clearance in rat liver microsomes at 1 uM in presence of NADPH by LC-MS/MS analysis
Format: ADME, microsome
EXPERIMENTAL CONTEXT: read-out: CLH
Please note: microsomal CLint at 1 µM exactly at 100 µL/min/mg is no (0). Only values below 100 µL/min/mg get yes (1).

is_below(microsomal CLint at 1 µM, 100 µL/min/mg) for C[C@H](Nc1ncc(F)c(N2C(=O)OC[C@@H]2CF)n1)c1cn(-c2ccc(Cl)cc2)cn1 ?
yes (1)

API: query returns whether the compound falls strictly under 100 µL/min/mg in microsomal CLint at 1 µM. Query: C[C@H](Nc1nccc(N2C(=O)OC[C@@H]2CF)n1)c1cn(-c2ccc(Cl)cc2)cn1
yes (1)

Report whether reported microsomal CLint at 1 µM is lower than 100 µL/min/mg (strictly) for C[C@H](Nc1ncc(F)c(N2C(=O)OC[C@@H]2[C@@H](C)F)n1)c1cn(-c2ccc(Cl)cc2)cn1
no (0)

A record lists C[C@H](Nc1nccc(N2C(=O)OC[C@@H]2[C@H](C)F)n1)c1cn(-c2ccc(Cl)cc2)cn1 . Is its microsomal CLint at 1 µM below 100 µL/min/mg?
no (0)

Here's an entry: CC(C)[C@H]1COC(=O)N1c1ccnc(N[C@@H](C)c2nc(-c3ccccc3Cl)no2)n1 . Is its microsomal CLint at 1 µM below 100 µL/min/mg?
no (0)

Just for reference, ChEMBL document CHEMBL4196126 is where these values come from.
